Biological target: T1, Biotin-huCGRPaSA (human, not fully specified; biotin (position not given))
T1 construct: exact construct ('aSA') not explained; also called Biotin CGRPaSA; full-length (1-37) CGRP
T1 peptide: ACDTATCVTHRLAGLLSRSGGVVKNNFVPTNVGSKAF
Test: ELISA, supernatant; relative to chimeric C245
Assign labels as follows, please: criterion met for Relative binding activity, % below 70%; criterion not met for Relative binding activity, % equal to or exceeding 70%.

* hu217 (antibody, V domains shown, 3H10 HC-2/2B8 LC2-1) VH: QVQLVQSGAEVKKPGASVKVSCKASGYTFTDYNMHWVRQAPGQGLEWMGYIYPYNGHTVYNQKFRNRVTLTVDTSSSTAYMELRSLRSDDTAVYYCAREGLGGYWGQGTLVTVSS VL: DIVLTQSPDSLAVSLGERATINCQASQNIDGNTYMNWYQQKPGQPPKVLIYSIFNLESGVPDRFSGSGSGTDFTLTISSLQAEDVAVYYCQQSNDYPYTFGQGTKLEIK | criterion not met
* hu86 (antibody, V domains shown, 1F5 HC-5/1F5 LC1-4) VH: QVQLVQSGAEVKKPGASVKVSCKASGYTFIDFNMHWVRQAPGQRLEWMGYIYPYNADVVYNQDFTNRVTLTVDTSSSTAYMELSSLRSEDTAVYYCAREGLGGYWGQGTLVTVSS VL: DIVLTQSPDSLAVSLGERATINCKASQNIDFDGYAYMNWYQHKPGQPPKVLIYSVFNLESGVPDRFSGSGSGTDFTLTISSLQAEDVAVYYCQQSHEVPYTFGQGTKLEIK | criterion not met
* hu26 (antibody, V domains shown, 1B2 HC-2/3H10 LC2-2) VH: QVQLVQSGAEVKKPGASVKVSCKASGYTFTDYNMHWVRQAPGQRLEWMGYIFPYNGVAVYNRKFRSRVTLTVDTSSSTAYMELSSLRSEDTAVYYCAREGLGGYWGQGTLVTVSS VL: DIQLTQSPSSLSASVGDRVTITCKASQNIDYGGYSYMNWYQQKPGKAPKVLIYSVFNLESGVPSRFSGSGSGTDFTLTISSLQPEDFATYYCQQSNEAPYTFGQGTKLEIK | criterion met
